The reported numbers originate from paper PMC2646117.

tested on: Dd2^attB; assay: Drug susceptibility assay, parental line; type: cell-based, P. falciparum; conditions: Plasmodium falciparum, DD2, read-out: IC50 (mean±SEM)
assay-endpoint: IC50 (µM)
Give a bare numeral; the unit µM is implied.

Prompt line: Read the entry "Oc1cc(Cl)ccc1Oc1ccc(Cl)cc1Cl" and write its reported IC50.
Response line: 3.1

###

test system: PfΔfabI^2; assay: Drug susceptibility assay, pffabI knockout clone; format: cell-based, P. falciparum; settings: Plasmodium falciparum, read-out: IC50 (mean ± SEM)
assay-endpoint: IC50

Prompt line: Given the compound Oc1cc(Cl)ccc1Oc1ccc(Cl)cc1Cl [triclosan, 5-chloro-2-(2,4-dichlorophenoxy)phenol] , write its reported IC50.
Response line: 2400 nM

###

test system: ANKA; experiment: Ex vivo drug susceptibility assay, P. berghei asexual blood stages; format: cell-based; settings: Plasmodium berghei, read-out: IC50 (means±SEM)
assay-endpoint: pIC50
Convention used: pIC50 is expressed as -log10 of the molar concentration.

Prompt line: Determine from records and report pIC50 for "Oc1cc(Cl)ccc1Oc1ccc(Cl)cc1Cl"
Response line: 5.92
